- Test system: T-47D breast
- assay_notes: NCI tumour cell line growth inhibition, 48 h
Give measured TGI for each item. Keep answers brief.
Kindly provide the numeric value in µM only, without the unit symbol.

Problem: Item C[C@@H](Oc1cc(-c2cnn(C3CC4(CCCNC4)C3)c2)cnc1N)c1c(Cl)ccc(F)c1Cl (some centres not stated) has what recorded TGI?
Solution: 3.42

Problem: Item Cc1cc(-c2nc3cc(F)ccc3s2)ccc1NC(=O)C(C)N (configuration not stated) has what recorded TGI?
Solution: 6.35

Problem: Item N#CC(C#N)=Cc1ccc(-c2ccc(-c3nc4ccccc4o3)cc2)o1 has what recorded TGI?
Solution: 90.1

Problem: Item CCCc1ccc(OCC(=O)N/N=C/c2c(-c3ccccc3)[nH]c3ccccc23)cc1 has what recorded TGI?
Solution: 52.4

Problem: Item ClC1=C(Cl)C(Cl)=C(Cl)C1=Cc1ccc(Cl)cc1 has what recorded TGI?
Solution: 2.04

Problem: Item CSc1ccc(C2=NN(C(=O)c3ccc(N)cc3)C(c3ccc(F)cc3)C2)cc1 (configuration not stated) has what recorded TGI?
Solution: 27.6

Problem: Item OC(c1ccccc1)c1c(-c2ccccc2)oc(-c2ccccc2)c1C(O)c1ccccc1 (configuration not stated) has what recorded TGI?
Solution: 23.3

Problem: Item C/C(=N\Nc1cccc(Cl)n1)c1ccccn1 has what recorded TGI?
Solution: 13.1

Problem: Item CC(C)(C)c1cc(C(C)(C)C)c2sc(=S)oc2c1O has what recorded TGI?
Solution: 20.6

----------
- System: RPMI-8226 leukemia
- assay_notes: NCI tumour cell line growth inhibition, 48 h; in the data active = GI50 below about 0.43 µM; inactive = the rest
Respond with a class label; see YES (active), NO (inactive)

Problem: I would be grateful if you could indicate the recorded call for Cc1ccc(-c2cc(/C=N/O)on2)cc1 .
Solution: NO

Problem: I would be grateful if you could indicate the recorded call for C=C1C(=O)OC2CC3(C)OC3C3OC3C3=CC(OC3=O)C12 (stereo unspecified) .
Solution: NO

Problem: I would be grateful if you could indicate the recorded call for CC(C)CNc1nc(N=[N+]=[N-])nc(NCC(C)C)n1 .
Solution: NO

Problem: I would be grateful if you could indicate the recorded call for CC1(C)CC2CC(C)(CN2c2ncnc3ccc(Br)cc23)C1 (stereo unspecified) .
Solution: NO

Problem: I would be grateful if you could indicate the recorded call for CC(=O)OCC(=O)C1(O)C(C)CC2C3C=C(C)C4=Cc5c(cnn5-c5ccccc5)CC4(C)C3C(O)CC21C (stereo unspecified) .
Solution: YES

Problem: I would be grateful if you could indicate the recorded call for CON .
Solution: NO

Problem: I would be grateful if you could indicate the recorded call for O=C(NO)c1cnc(N2CCN(S(=O)(=O)c3ccc4ccccc4c3)CC2)nc1 .
Solution: YES

Problem: I would be grateful if you could indicate the recorded call for CCOC(=O)C(Cc1ccc(OC)cc1)C(=O)OCC .
Solution: NO

Problem: I would be grateful if you could indicate the recorded call for COc1ccc(-n2cc(-c3ccc(OC)c(OC)c3)nc2SCc2ccccc2)cc1Cl .
Solution: NO

Problem: I would be grateful if you could indicate the recorded call for Cc1sc(/N=C2/NC(=O)CS2)nc1-c1nc(/N=C2/NC(=O)CS2)sc1C .
Solution: NO

Problem: I would be grateful if you could indicate the recorded call for CCOc1cc(/C=N\NC(=O)N/N=C/c2ccc(O)c(OCC)c2)ccc1O .
Solution: NO

Problem: I would be grateful if you could indicate the recorded call for CC(=O)/C=C/C1=C(c2ccsc2)c2ccccc2CC1 .
Solution: NO

Problem: I would be grateful if you could indicate the recorded call for CNCCOc1nc2c3cnccc3cc(-c3cc(OC)c(OC)c(OC)c3)c2c2ccncc12 .
Solution: YES

Problem: I would be grateful if you could indicate the recorded call for COc1cccc(Nc2nccc(Nc3ccc4[nH]ncc4c3)n2)c1 .
Solution: NO

Problem: I would be grateful if you could indicate the recorded call for COc1ccc(-c2cncn2-c2cc(OC)c(OC)c(OC)c2)cc1F .
Solution: YES

Problem: I would be grateful if you could indicate the recorded call for COc1cc(C2C(C#N)=C(N)Oc3cc4c(cc32)OCO4)cc2c1OCO2 (stereo unspecified) .
Solution: YES
